- test target: T1, Human IL-11 (human, UniProt P20809 22-199); further: test concentration or dose not given here
- T1 sequence: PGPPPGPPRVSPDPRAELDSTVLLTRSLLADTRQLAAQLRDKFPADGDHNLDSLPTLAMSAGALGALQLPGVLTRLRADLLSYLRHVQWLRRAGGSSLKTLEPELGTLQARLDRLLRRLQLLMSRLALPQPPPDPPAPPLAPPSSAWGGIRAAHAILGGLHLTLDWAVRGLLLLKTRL
- test name: cell-based or functional assay
# MMP2 production, Experiment 2 (human atrial fibroblasts + TGFB1) annotations
observed property: MMP2 production, Experiment 2 (human atrial fibroblasts + TGFB1) (ng/mL)

binder: YU112-G01 (antibody) QVQLVESGGGVVQPGRSLRLSCAASGFTFSSYGMHWVRQAPGKGLEWVAVISYDGSNKYYADSVKGRFTISRDNSKNTLYLQMNSLRAEDTAVYYCAKLSGPNGVDYWGQGTLVTVSSGSASAPKLEEGEFSEARVQSALTQPRSVSGSPGQSVTISCTGTISDVGGYNYVSWYQQHPGKAPKLMIYDVTKRPSGVPDRFSGSKSGNTASLTISGLQAEDEAGYYCSSYAGSYTWVFGGGTELTVL
data value: 43.8
--
binder: YU100-E04 (antibody) QVQLQQSGGGVVQPGRSLRLSCAASGFTFSSYGMHWVRQAPGKGLEWVAVISYDGSNKYYADSVKGRFTISRDNSKNTLYLQMNSLRAEDTAVYYCAKIGATDPLDYWGQGTLVTVSSGSASAPKLEEGEFSEARVQSALTQPRSVSGSPGQSVTISCTGTSSDVGGYNYVSWYQQHPGKTPKLMIYDVTKRPSGVPDHFSGSKSGNTASLTISGLQAEDEADYYCCSYAGSHIWVFGGGTKLTVLGQPKAAPSVTLFPPSS
data value: 43.5
--
binder: YU100-H06 (antibody) QVQLVESGGGVVQPGRSLRLSCAASGFTFSSYGMHWVRQAPGKGLEWVAVISYDGSNKYYADSVKGRFTISRDNSKNTLYLQMNSLRAEDTAVYYCAKIGATDPLDYWGQGTLVTVSSGSASAPKLEEGEFSEARIQSALTQPRSVSGSPGQSVTISCTGTSSDVGGYNYVSWYQQHPGKAPKLMIYDVTKRPSGVPDRFSGSKSGNTASLTISGLQAEDEADYYCSSYAGSYTWVFGGGTKLTVL
data value: 43.9
